In this section we review reported minimum inhibitory concentration values for a set of compounds.
- System: Escherichia coli
- assay.comment: minimum inhibitory concentration (MIC)
- condition.description: isolate (source animal id): 134

Field: example entries. Status: answers known.
compound | result
COc1cc(Cc2cnc(N)nc2N)cc(OC)c1OC.Cc1cc(NS(=O)(=O)c2ccc(N)cc2)no1 [trimethoprim-sulfamethoxazole] | ≤ 2 µg/mL
CCCN1C[C@H](C)[C@@H](O)[C@](C)(O)[C@@H](CC)OC(=O)[C@H](C)[C@@H](O[C@H]2C[C@@](C)(OC)[C@@H](O)[C@H](C)O2)[C@H](C)[C@@H](O[C@@H]2O[C@H](C)C[C@H](N(C)C)[C@H]2O)[C@](C)(O)C[C@H]1C [Gamithromycin] | 8 µg/mL

Shifting focus to the compound that follows.
Tell me the measured minimum inhibitory concentration of CNC(C)C1CCC(N)C(OC2C(N)CC(N)C(OC3OCC(C)(O)C(NC)C3O)C2O)O1 (stereo not drawn) [Gentamicin] , please. ≤ 1 µg/mL

----------
- System: Enterococcus spp.
- assay.comment: minimum inhibitory concentration (MIC)
- condition.description: isolate (source animal id): 290
In this section we review reported minimum inhibitory concentration values for a set of compounds.

record.smiles | result
CC[C@H]1OC(=O)C[C@@H](O)[C@H](C)[C@@H](O[C@@H]2O[C@H](C)[C@@H](O)[C@H](N(C)C)[C@H]2O)[C@@H](CCN2C[C@H](C)C[C@H](C)C2)C[C@@H](C)C(=O)/C=C/C(C)=C/[C@@H]1CO[C@@H]1O[C@H](C)[C@@H](O)[C@@H](OC)[C@H]1OC | 8 mg/L

Shifting focus to the compound that follows.
Tell me the measured minimum inhibitory concentration of CCCNC[C@]1(O)[C@H](C)O[C@@H](O[C@H]2[C@H](C)[C@@H](O[C@@H]3O[C@H](C)C[C@H](N(C)C)[C@H]3O)[C@](C)(O)C[C@@H](C)CN[C@H](C)[C@@H](O)[C@](C)(O)[C@@H](CC)OC(=O)[C@@H]2C)C[C@@]1(C)OC , please. ≤ 8 mg/L

----------
- Tested on: Mannheimia haemolytica
- assay.comment: minimum inhibitory concentration (MIC)
- condition.description: isolate (source animal id): 309
metric.name: minimum inhibitory concentration (µg/mL)
Output spec: scalar in µg/mL, unitless text.

record.smiles | result.unit | minimum inhibitory concentration
CCC[C@@H]1C[C@@H](C(=O)N[C@@H]([C@H]2O[C@H](SC)[C@H](O)[C@@H](O)[C@H]2O)[C@H](C)Cl)N(C)C1 | µg/mL | 16
C=C[C@]1(C)C[C@@H](OC(=O)CSCCN(CC)CC)[C@]2(C)[C@H](C)CC[C@]3(CCC(=O)[C@H]32)[C@@H](C)[C@@H]1O | µg/mL | 8

Tell me the measured minimum inhibitory concentration of CC[C@H]1OC(=O)C[C@@H](O)[C@H](C)[C@@H](O[C@@H]2O[C@H](C)[C@@H](O)[C@H](N(C)C)[C@H]2O)[C@@H](CCN2C[C@H](C)C[C@H](C)C2)C[C@@H](C)C(=O)/C=C/C(C)=C/[C@@H]1CO[C@@H]1O[C@H](C)[C@@H](O)[C@@H](OC)[C@H]1OC , please. 4

----------
In this section we review reported minimum inhibitory concentration values for a set of molecules.
- Test system: Escherichia coli
- assay.comment: minimum inhibitory concentration (MIC)
- condition.description: isolate (source animal id): 155

Field: example entries. Status: answers known.
molecule | minimum inhibitory concentration
CS(=O)(=O)c1ccc([C@@H](O)[C@@H](CF)NC(=O)C(Cl)Cl)cc1 [Florfenicol] | > 8 µg/mL
CCC[C@@H]1C[C@@H](C(=O)N[C@@H]([C@H]2O[C@H](SC)[C@H](O)[C@@H](O)[C@H]2O)[C@H](C)Cl)N(C)C1 [Clindamycin] | > 16 µg/mL
CN1C[C@@H]2C[C@H]1CN2c1cc2c(cc1F)c(=O)c(C(=O)O)cn2C1CC1 [Danofloxacin] | ≤ 0.12 µg/mL
COc1cc(NS(=O)(=O)c2ccc(N)cc2)nc(OC)n1 [sulfadimethoxine] | > 256 µg/mL
CC[C@H]1OC(=O)C[C@@H](O)[C@H](C)[C@@H](O[C@@H]2O[C@H](C)[C@@H](O)[C@H](N(C)C)[C@H]2O)[C@@H](CCN2CCCCC2)C[C@@H](C)C(=O)/C=C/C(C)=C/[C@@H]1CN1CCCCC1 [Tildipirosin] | 4 µg/mL

Shifting focus to the molecule that follows.
Tell me the measured minimum inhibitory concentration of CN[C@@H]1[C@H](O)[C@H](NC)[C@H]2O[C@@]3(O)C(=O)C[C@@H](C)O[C@H]3O[C@@H]2[C@H]1O [Spectinomycin] , please. > 64 µg/mL

Hey, just so you know, these numbers are from the supplement of paper PMC8612539.
